tgt: T1, human GPC3-his tag protein (human, UniProt P51654 25-559, limits assumed)
T1 construct: recombinant soluble antigen used as analyte in all Biacore runs; also called recombinant GPC3 protein; rhGPC3-His; not shown: His tag
test-method-notes: SPR Biacore 8K, mAb captured, one or two doses GPC3-his
Assign log10 of koff to each entry below.
Kindly note that the scale is log10 and the underlying koff is in s⁻¹.

**Q:** I am curious: what log10 of koff value has been reported for 52H5D3B8-1# chimeric mAb (antibody, V domains shown, CDR3 mutant of the 52H5D3B8 chimeric mAb (human IgG1)) VH: QVQLQQSGAELVRPGASVKLSCKALGYTFTDYEMHWVKQTPVHGLEWIGAIHPGSGGTAYNQKFKGKATLTADKFSSTGYMELSSLTSEDSAVYYCTRYYSYAYWGQGTLVTVSA VL: DVVMTQTPLSLPVSLGDQASISCRSSQSLVHSNGNTYLQWYLQKPGQSPKLLIYKVSNRFSGVPDRFSGSGSGTDFILKISRVEAEDLGVYFCSQSIHVPYTFGGGTKLEIK ?
**A:** -3.54

**Q:** I am curious: what log10 of koff value has been reported for 52H5D3B8-8# chimeric mAb (antibody, V domains shown, CDR3 mutant of the 52H5D3B8 chimeric mAb (human IgG1)) VH: QVQLQQSGAELVRPGASVKLSCKALGYTFTDYEMHWVKQTPVHGLEWIGAIHPGSGGTAYNQKFKGKATLTADKFSSTGYMELSSLTSEDSAVYYCTRFYSFAYWGQGTLVTVSA VL: DVVMTQTPLSLPVSLGDQASISCRSSQSLVHSNGNTYLQWYLQKPGQSPKLLIYKVSNRFSGVPDRFSGSGSGTDFILKISRVEAEDLGVYFCFQSIHVPYTFGGGTKLEIK ?
**A:** -3.00

**Q:** I am curious: what log10 of koff value has been reported for 52H5D3B8-4# chimeric mAb (antibody, V domains shown, CDR3 mutant of the 52H5D3B8 chimeric mAb (human IgG1)) VH: QVQLQQSGAELVRPGASVKLSCKALGYTFTDYEMHWVKQTPVHGLEWIGAIHPGSGGTAYNQKFKGKATLTADKFSSTGYMELSSLTSEDSAVYYCTRFYSYAYWGQGTLVTVSA VL: DVVMTQTPLSLPVSLGDQASISCRSSQSLVHSNGNTYLQWYLQKPGQSPKLLIYKVSNRFSGVPDRFSGSGSGTDFILKISRVEAEDLGVYFCSQSTHVPYTFGGGTKLEIK ?
**A:** -3.24

**Q:** I am curious: what log10 of koff value has been reported for 52H5D3B8-11# chimeric mAb (antibody, V domains shown, CDR3 mutant of the 52H5D3B8 chimeric mAb (human IgG1)) VH: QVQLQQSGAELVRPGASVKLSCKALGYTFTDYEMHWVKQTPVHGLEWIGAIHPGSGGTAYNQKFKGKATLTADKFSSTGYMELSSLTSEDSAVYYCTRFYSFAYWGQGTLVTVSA VL: DVVMTQTPLSLPVSLGDQASISCRSSQSLVHSNGNTYLQWYLQKPGQSPKLLIYKVSNRFSGVPDRFSGSGSGTDFILKISRVEAEDLGVYFCFQSTHVPYTFGGGTKLEIK ?
**A:** -2.45

**Q:** I am curious: what log10 of koff value has been reported for 52H5D3B8-9# chimeric mAb (antibody, V domains shown, CDR3 mutant of the 52H5D3B8 chimeric mAb (human IgG1)) VH: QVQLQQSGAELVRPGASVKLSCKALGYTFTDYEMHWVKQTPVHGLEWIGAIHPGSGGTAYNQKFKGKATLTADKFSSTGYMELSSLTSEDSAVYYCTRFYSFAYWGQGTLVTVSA VL: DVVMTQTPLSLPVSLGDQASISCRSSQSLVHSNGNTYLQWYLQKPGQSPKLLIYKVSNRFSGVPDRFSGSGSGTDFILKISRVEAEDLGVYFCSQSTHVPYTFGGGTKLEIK ?
**A:** -2.67

**Q:** I am curious: what log10 of koff value has been reported for 52H5D3B8-7# chimeric mAb (antibody, V domains shown, CDR3 mutant of the 52H5D3B8 chimeric mAb (human IgG1)) VH: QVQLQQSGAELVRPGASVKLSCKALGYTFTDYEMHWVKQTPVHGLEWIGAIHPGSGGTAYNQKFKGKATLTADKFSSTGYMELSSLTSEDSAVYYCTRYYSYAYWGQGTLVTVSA VL: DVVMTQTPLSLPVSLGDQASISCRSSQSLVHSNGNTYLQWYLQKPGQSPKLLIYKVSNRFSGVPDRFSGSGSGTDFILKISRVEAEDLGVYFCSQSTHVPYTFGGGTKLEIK ?
**A:** -3.21

**Q:** I am curious: what log10 of koff value has been reported for 52H5D3B8-15# chimeric mAb (antibody, V domains shown, CDR3 mutant of the 52H5D3B8 chimeric mAb (human IgG1)) VH: QVQLQQSGAELVRPGASVKLSCKALGYTFTDYEMHWVKQTPVHGLEWIGAIHPGSGGTAYNQKFKGKATLTADKFSSTGYMELSSLTSEDSAVYYCTRYYSFAYWGQGTLVTVSA VL: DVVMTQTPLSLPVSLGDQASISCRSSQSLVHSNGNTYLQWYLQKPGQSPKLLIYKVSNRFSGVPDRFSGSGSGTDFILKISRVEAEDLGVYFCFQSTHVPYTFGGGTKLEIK ?
**A:** -2.12

**Q:** I am curious: what log10 of koff value has been reported for 52H5D3B8-6# chimeric mAb (antibody, V domains shown, CDR3 mutant of the 52H5D3B8 chimeric mAb (human IgG1); also called 52H5D3B8-6#-VH+VL) VH: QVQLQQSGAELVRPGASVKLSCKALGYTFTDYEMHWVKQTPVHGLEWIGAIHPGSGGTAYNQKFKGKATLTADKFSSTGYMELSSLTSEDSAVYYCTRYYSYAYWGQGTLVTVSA VL: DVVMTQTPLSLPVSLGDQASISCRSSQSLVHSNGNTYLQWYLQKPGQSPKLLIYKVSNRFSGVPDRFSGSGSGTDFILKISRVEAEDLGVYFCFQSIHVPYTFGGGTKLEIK ?
**A:** -3.54

**Q:** I am curious: what log10 of koff value has been reported for 52H5D3B8-3# chimeric mAb (antibody, V domains shown, CDR3 mutant of the 52H5D3B8 chimeric mAb (human IgG1)) VH: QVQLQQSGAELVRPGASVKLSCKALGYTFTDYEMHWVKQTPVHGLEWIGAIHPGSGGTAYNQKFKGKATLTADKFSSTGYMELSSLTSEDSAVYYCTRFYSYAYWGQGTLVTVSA VL: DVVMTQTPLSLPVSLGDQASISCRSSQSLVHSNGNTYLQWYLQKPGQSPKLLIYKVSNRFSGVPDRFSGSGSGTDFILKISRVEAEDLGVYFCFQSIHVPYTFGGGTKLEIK ?
**A:** -3.25

**Q:** I am curious: what log10 of koff value has been reported for 52H5D3B8-10# chimeric mAb (antibody, V domains shown, CDR3 mutant of the 52H5D3B8 chimeric mAb (human IgG1)) VH: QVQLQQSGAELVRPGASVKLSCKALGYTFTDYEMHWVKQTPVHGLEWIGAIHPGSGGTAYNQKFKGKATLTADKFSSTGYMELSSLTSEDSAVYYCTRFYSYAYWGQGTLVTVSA VL: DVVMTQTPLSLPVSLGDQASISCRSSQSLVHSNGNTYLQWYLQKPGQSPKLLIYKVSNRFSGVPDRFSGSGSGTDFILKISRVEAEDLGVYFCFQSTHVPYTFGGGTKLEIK ?
**A:** -2.93
